Data credit: patent US8399465B2

tested on: LTB4 production in murine blood (LTA4H); experiment: LTB4 production by calcium ionophore-stimulated murine blood for LTA4H inhibitor activity; type: cell-based, CD-1 mice; conditions: Mus musculus; murine blood diluted 1 in 15, A23187 stimulated; single determination or average; mark after value = form tested: ′ free base, ″ hydrochloride, ^ formate; read-out: IC50
Would you mind telling me the reported pIC50 of each entry?
Please report pIC50 as the negative decimal logarithm of the molar concentration, giving only the number.

Ask: Give its pIC50 value. Item: NC(=O)N1CC2CN(Cc3cc4cc(Oc5nc6ncccc6s5)ccc4o3)CC2C1 (centres unmarked) [Example 91]
Reply: 7.01

Ask: Likewise for CC(=O)N1C[C@H]2C[C@@H]1CN2Cc1cc2ccc(Oc3nc4ncccc4s3)cc2o1 [Example 107] ?
Reply: 6.56

Ask: Likewise for O=C(c1coc2cc(Oc3nc4ncccc4s3)ccc12)N1CCCCC1 [Example 383] ?
Reply: 6.70

Ask: Likewise for OC1CN(Cc2coc3cc(Oc4nc5ncccc5s4)ccc23)C1 [Example 315] ?
Reply: 7.47

Ask: Likewise for CC(=O)N[C@H]1C[C@H]2CC[C@@H](C1)N2Cc1coc2cc(Oc3nc4ncccc4s3)ccc12 [Example 155] ?
Reply: 8.05
